# TARGET_ENTITY: Rat α4β2 (Rattus norvegicus, UniProt P09483+P12390)
# Construct: Rat cortices were obtained from Analytical Biological Services; tissue Analytical Biological Services, Incorporated (ABS, Wilmington, Del.); host or cells: rat cortex (female Sprague-Dawley)
# ASSAY_SUMMARY: Competition binding to rat α4β2 receptors in rat cortical membranes
# TEST_PARAMETERS: Rat α4β2 Ki, rat cortex membranes
pKi: −log10 of the molar value.
OBSERVED_PROPERTY: pKi

{"COMPOUND": "O=C([C@H]1C[C@@H]1F)N1C2CNCC1C2", "TARGET_ENTITY": "Rat α4β2 (Rattus norvegicus, UniProt P09483+P12390)", "RECORDED_NUMBER": 9.00}
{"COMPOUND": "O=C(C1CC12CCC2)N1C2CNCC1C2 (stereo not shown)", "TARGET_ENTITY": "Rat α4β2 (Rattus norvegicus, UniProt P09483+P12390)", "RECORDED_NUMBER": 7.49}
{"COMPOUND": "CC(C)C(=O)N1CC2CC(C1)N2", "TARGET_ENTITY": "Rat α4β2 (Rattus norvegicus, UniProt P09483+P12390)", "RECORDED_NUMBER": 7.64}
{"COMPOUND": "O=C(CC1C=CCC1)N1C2CNCC1C2 (stereo not shown)", "TARGET_ENTITY": "Rat α4β2 (Rattus norvegicus, UniProt P09483+P12390)", "RECORDED_NUMBER": 7.15}
{"COMPOUND": "O=C(CCC(F)(F)F)N1CC2CC(C1)N2", "TARGET_ENTITY": "Rat α4β2 (Rattus norvegicus, UniProt P09483+P12390)", "RECORDED_NUMBER": 7.20}
{"COMPOUND": "O=C([C@@H]1C[C@H]1c1ccccc1)N1C2CNCC1C2", "TARGET_ENTITY": "Rat α4β2 (Rattus norvegicus, UniProt P09483+P12390)", "RECORDED_NUMBER": 7.29}
{"COMPOUND": "O=C(C1CCC1)N1CC2CC(C1)N2", "TARGET_ENTITY": "Rat α4β2 (Rattus norvegicus, UniProt P09483+P12390)", "RECORDED_NUMBER": 8.17}
{"COMPOUND": "Cc1ncoc1C(=O)N1CC2CC(C1)N2", "TARGET_ENTITY": "Rat α4β2 (Rattus norvegicus, UniProt P09483+P12390)", "RECORDED_NUMBER": 7.42}
{"COMPOUND": "O=C(c1ccc(Br)o1)N1CC2CC(C1)N2", "TARGET_ENTITY": "Rat α4β2 (Rattus norvegicus, UniProt P09483+P12390)", "RECORDED_NUMBER": 7.08}
{"COMPOUND": "O=C(C1CC12CCC2)N1CC2CC(C1)N2 (stereo not shown)", "TARGET_ENTITY": "Rat α4β2 (Rattus norvegicus, UniProt P09483+P12390)", "RECORDED_NUMBER": 8.92}
{"COMPOUND": "O=C(C1CC(F)(F)C1)N1CC2CC(C1)N2", "TARGET_ENTITY": "Rat α4β2 (Rattus norvegicus, UniProt P09483+P12390)", "RECORDED_NUMBER": 7.72}
{"COMPOUND": "CCCC(=O)N1C2CNCC1C2", "TARGET_ENTITY": "Rat α4β2 (Rattus norvegicus, UniProt P09483+P12390)", "RECORDED_NUMBER": 8.29}
{"COMPOUND": "CCCC(=O)N1CC2CC(C1)N2", "TARGET_ENTITY": "Rat α4β2 (Rattus norvegicus, UniProt P09483+P12390)", "RECORDED_NUMBER": 8.39}

###

# TARGET_ENTITY: Human α4β2 (Homo sapiens, UniProt P17787+P43681)
# Construct: host or cells: SH-EP1
# ASSAY_SUMMARY: Competition binding to human α4β2 receptors in membranes of SH-EP1/human α4β2 cells ([3H]-nicotine)
# TEST_PARAMETERS: Human α4β2 Ki, membrane competition binding

{"COMPOUND": "O=C([C@@H]1C[C@H]1c1ccccc1)N1CC2CC(C1)N2", "TARGET_ENTITY": "Human α4β2 (Homo sapiens, UniProt P17787+P43681)", "MEASUREMENT_UNIT": "nM", "Ki": 4.7}
{"COMPOUND": "CC(C)CC(=O)N1CC2CC(C1)N2", "TARGET_ENTITY": "Human α4β2 (Homo sapiens, UniProt P17787+P43681)", "MEASUREMENT_UNIT": "nM", "Ki": 34}
{"COMPOUND": "O=C(OCCF)N1CC2CC(C1)N2", "TARGET_ENTITY": "Human α4β2 (Homo sapiens, UniProt P17787+P43681)", "MEASUREMENT_UNIT": "nM", "Ki": 5.9}
{"COMPOUND": "O=C(NCc1ccc(Cl)cc1Cl)N1CC2CC(C1)N2", "TARGET_ENTITY": "Human α4β2 (Homo sapiens, UniProt P17787+P43681)", "MEASUREMENT_UNIT": "nM", "Ki": 48}
{"COMPOUND": "O=C(CC1CCC1)N1CC2CC(C1)N2", "TARGET_ENTITY": "Human α4β2 (Homo sapiens, UniProt P17787+P43681)", "MEASUREMENT_UNIT": "nM", "Ki": 49}
{"COMPOUND": "C[C@H]1C[C@H]1C(=O)N1C2CNCC1C2", "TARGET_ENTITY": "Human α4β2 (Homo sapiens, UniProt P17787+P43681)", "MEASUREMENT_UNIT": "nM", "Ki": 9.6}
{"COMPOUND": "O=C(CC1CC1)N1C2CNCC1C2", "TARGET_ENTITY": "Human α4β2 (Homo sapiens, UniProt P17787+P43681)", "MEASUREMENT_UNIT": "nM", "Ki": 43}
{"COMPOUND": "CCCC(=O)N1C2CNCC1C2", "TARGET_ENTITY": "Human α4β2 (Homo sapiens, UniProt P17787+P43681)", "MEASUREMENT_UNIT": "nM", "Ki": 9.9}
{"COMPOUND": "O=C(CCC(F)(F)F)N1CC2CC(C1)N2", "TARGET_ENTITY": "Human α4β2 (Homo sapiens, UniProt P17787+P43681)", "MEASUREMENT_UNIT": "nM", "Ki": 74}
{"COMPOUND": "CC1(C)CC1C(=O)N1C2CNCC1C2 (centres unmarked)", "TARGET_ENTITY": "Human α4β2 (Homo sapiens, UniProt P17787+P43681)", "MEASUREMENT_UNIT": "nM", "Ki": 75}
{"COMPOUND": "COCCC(=O)N1CC2CC(C1)N2", "TARGET_ENTITY": "Human α4β2 (Homo sapiens, UniProt P17787+P43681)", "MEASUREMENT_UNIT": "nM", "Ki": 72}
{"COMPOUND": "CC(=O)N1CC2CC(C1)N2", "TARGET_ENTITY": "Human α4β2 (Homo sapiens, UniProt P17787+P43681)", "MEASUREMENT_UNIT": "nM", "Ki": 170}
{"COMPOUND": "O=C(CC(F)(F)F)N1CC2CC(C1)N2", "TARGET_ENTITY": "Human α4β2 (Homo sapiens, UniProt P17787+P43681)", "MEASUREMENT_UNIT": "nM", "Ki": 11}
{"COMPOUND": "O=C(C1CCC1)N1CC2CC(C1)N2", "TARGET_ENTITY": "Human α4β2 (Homo sapiens, UniProt P17787+P43681)", "MEASUREMENT_UNIT": "nM", "Ki": 28}
{"COMPOUND": "C[C@H]1C[C@@H]1C(=O)N1CC2CC(C1)N2 [drawing 157]", "TARGET_ENTITY": "Human α4β2 (Homo sapiens, UniProt P17787+P43681)", "MEASUREMENT_UNIT": "nM", "Ki": 7.6}
{"COMPOUND": "O=C(c1ccc(Br)o1)N1C2CNCC1C2", "TARGET_ENTITY": "Human α4β2 (Homo sapiens, UniProt P17787+P43681)", "MEASUREMENT_UNIT": "nM", "Ki": 66}
{"COMPOUND": "O=C(C1CCC1)N1C2CNCC1C2", "TARGET_ENTITY": "Human α4β2 (Homo sapiens, UniProt P17787+P43681)", "MEASUREMENT_UNIT": "nM", "Ki": 14}
{"COMPOUND": "O=C(c1ccc(Cl)o1)N1C2CNCC1C2", "TARGET_ENTITY": "Human α4β2 (Homo sapiens, UniProt P17787+P43681)", "MEASUREMENT_UNIT": "nM", "Ki": 38}
{"COMPOUND": "O=C(c1ccc(Br)o1)N1CC2CC(C1)N2", "TARGET_ENTITY": "Human α4β2 (Homo sapiens, UniProt P17787+P43681)", "MEASUREMENT_UNIT": "nM", "Ki": 25}
{"COMPOUND": "CCCC(=O)N1CC2CC(C1)N2", "TARGET_ENTITY": "Human α4β2 (Homo sapiens, UniProt P17787+P43681)", "MEASUREMENT_UNIT": "nM", "Ki": 12}
{"COMPOUND": "C/C=C/CCC(=O)N1C2CNCC1C2", "TARGET_ENTITY": "Human α4β2 (Homo sapiens, UniProt P17787+P43681)", "MEASUREMENT_UNIT": "nM", "Ki": 53}
{"COMPOUND": "COCC(=O)N1CC2CC(C1)N2", "TARGET_ENTITY": "Human α4β2 (Homo sapiens, UniProt P17787+P43681)", "MEASUREMENT_UNIT": "nM", "Ki": 79}
{"COMPOUND": "O=C(C1CC=CC1)N1CC2CC(C1)N2", "TARGET_ENTITY": "Human α4β2 (Homo sapiens, UniProt P17787+P43681)", "MEASUREMENT_UNIT": "nM", "Ki": 37}
{"COMPOUND": "[2H]C1([2H])C([2H])([2H])C1([2H])C(=O)N1CC2CC(C1)N2", "TARGET_ENTITY": "Human α4β2 (Homo sapiens, UniProt P17787+P43681)", "MEASUREMENT_UNIT": "nM", "Ki": 0.49}
{"COMPOUND": "CC1CC(C(=O)N2C3CNCC2C3)C1 (centres unmarked)", "TARGET_ENTITY": "Human α4β2 (Homo sapiens, UniProt P17787+P43681)", "MEASUREMENT_UNIT": "nM", "Ki": 49}
{"COMPOUND": "O=C(c1cnco1)N1C2CNCC1C2", "TARGET_ENTITY": "Human α4β2 (Homo sapiens, UniProt P17787+P43681)", "MEASUREMENT_UNIT": "nM", "Ki": 72}
{"COMPOUND": "CCCOC(=O)N1CC2CC(C1)N2", "TARGET_ENTITY": "Human α4β2 (Homo sapiens, UniProt P17787+P43681)", "MEASUREMENT_UNIT": "nM", "Ki": 24}
{"COMPOUND": "O=C(C1CC12CCCC2)N1CC2CC(C1)N2 (centres unmarked)", "TARGET_ENTITY": "Human α4β2 (Homo sapiens, UniProt P17787+P43681)", "MEASUREMENT_UNIT": "nM", "Ki": 26}
{"COMPOUND": "Cc1cc(C(=O)N2C3CNCC2C3)no1", "TARGET_ENTITY": "Human α4β2 (Homo sapiens, UniProt P17787+P43681)", "MEASUREMENT_UNIT": "nM", "Ki": 100}
